Reported inhibition at 10 µM values for the following compounds.
target: CDK15/Cyclin Y (Homo sapiens, UniProt Q96Q40); experiment: NanoBRET live-cell target engagement, NanoLuc-CDK15/Cyclin Y in HEK-293; type: binding; conditions: CDK15/Y; experiment 2; read-out: Inhibition at 10µM (%)
Sequence (Q96Q40 whole entry): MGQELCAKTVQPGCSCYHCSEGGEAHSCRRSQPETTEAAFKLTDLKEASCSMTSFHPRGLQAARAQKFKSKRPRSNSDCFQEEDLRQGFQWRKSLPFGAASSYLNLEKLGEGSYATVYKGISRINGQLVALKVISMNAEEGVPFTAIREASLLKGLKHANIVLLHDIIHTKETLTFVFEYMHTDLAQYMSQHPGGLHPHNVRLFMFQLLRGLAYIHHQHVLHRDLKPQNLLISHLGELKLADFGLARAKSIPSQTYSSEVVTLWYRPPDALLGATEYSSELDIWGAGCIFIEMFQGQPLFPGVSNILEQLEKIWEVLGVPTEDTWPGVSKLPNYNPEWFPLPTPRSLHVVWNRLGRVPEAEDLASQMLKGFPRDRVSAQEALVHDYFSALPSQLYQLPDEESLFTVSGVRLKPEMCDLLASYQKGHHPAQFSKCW
Sequence (Q8ND76 whole entry partner): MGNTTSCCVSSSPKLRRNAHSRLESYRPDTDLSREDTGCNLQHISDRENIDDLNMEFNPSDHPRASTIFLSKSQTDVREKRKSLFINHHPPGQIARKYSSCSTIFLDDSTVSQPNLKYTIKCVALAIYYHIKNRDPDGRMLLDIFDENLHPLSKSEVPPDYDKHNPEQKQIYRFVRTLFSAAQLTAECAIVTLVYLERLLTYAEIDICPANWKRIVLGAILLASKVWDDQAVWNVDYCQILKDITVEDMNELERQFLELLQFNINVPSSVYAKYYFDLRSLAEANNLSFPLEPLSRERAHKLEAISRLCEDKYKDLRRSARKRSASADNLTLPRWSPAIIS
Your answer should be a plain number; it is taken to be in %.

Examples with their reported inhibition at 10 µM follow.
>>> df
                                   compound         readout_kind  recorded_value
0  CNC(=O)c1nn(C)c2c1C(C)(C)Cc1cnc(Nc3ccc(N4CCN(C)CC4)cc3)nc1-2 [Milciclib]  inhibition at 10 µM            88.1
1  COc1ccc(F)cc1-c1cc(NC(=O)C2CCCNC2)ncc1Cl (stereo not shown) [CDK inhibitor 2]  inhibition at 10 µM            91.4
2  NS(=O)(=O)c1ccc(Nc2nc(OCC3CCCCC3)c3nc[nH]c3n2)cc1 [NU6102]  inhibition at 10 µM            10.5

Output measured inhibition at 10 µM for this item: CC(C)N1CCN(c2ccc(Nc3ncc4cc5n(c4n3)C3(CCCCC3)CNC5=O)nc2)CC1 [Lerociclib]
24.7

Output measured inhibition at 10 µM for this item: CC(C)(C)c1nc(-c2cccc(NS(=O)(=O)c3c(F)cccc3F)c2F)c(-c2ccnc(N)n2)s1 [Dabrafenib]
24.7

Output measured inhibition at 10 µM for this item: CC(C)c1cnn2c(NCc3ccccc3)cc(NC[C@H]3CCNC[C@@H]3O)nc12 [CT7001]
80.6

Output measured inhibition at 10 µM for this item: Cn1cc(-c2ccc(-c3cncc(Cl)c3N3CCC4(CCNC4=O)CC3)cc2)cn1 [CCT251545]
0.46

Output measured inhibition at 10 µM for this item: CN1CCN(Cc2ccc(NC(=O)Nc3ccc(Oc4ccnc(N)n4)cc3)cc2C(F)(F)F)CC1 [K03861]
78.6

Output measured inhibition at 10 µM for this item: CN1CCN(c2ccc(Nc3ncc4cc(C#N)c(=O)n(C5CCCC5)c4n3)cc2)CC1 [ON123300]
22.5

Output measured inhibition at 10 µM for this item: N#CCNC(=O)c1ccc(-c2ccnc(Nc3ccc(N4CCOCC4)cc3)n2)cc1 [Momelotinib]
4

Attribution: paper PMC7265341
